Reference source for all entries: patent US20110136737A1

tested-on: T1, human GIP receptor (human), P48546
T1 chain: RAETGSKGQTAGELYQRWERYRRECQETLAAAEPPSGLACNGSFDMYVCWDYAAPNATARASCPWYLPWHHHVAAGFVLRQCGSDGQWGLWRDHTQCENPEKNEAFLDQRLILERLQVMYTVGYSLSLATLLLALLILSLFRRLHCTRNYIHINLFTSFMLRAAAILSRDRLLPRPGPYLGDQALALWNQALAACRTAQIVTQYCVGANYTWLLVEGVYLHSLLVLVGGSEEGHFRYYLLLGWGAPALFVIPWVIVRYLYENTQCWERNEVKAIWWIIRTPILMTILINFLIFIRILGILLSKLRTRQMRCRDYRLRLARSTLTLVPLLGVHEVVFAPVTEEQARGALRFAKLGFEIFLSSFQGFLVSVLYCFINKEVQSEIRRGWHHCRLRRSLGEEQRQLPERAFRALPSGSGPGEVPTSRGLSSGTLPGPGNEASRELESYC
method-summary: 125I-GIP displacement by 10 nM analog, HEK-GIPR membranes
reported-endpoint: % Inh at 10 nM (%)
Write down the numeric answer in % and omit the unit.

binder	% Inh at 10 nM / %
YAEGTFISDYSIAMDKIHQQDFVNWLLAQKPSKEIIH (modifications not checked) [0601GIP4710]	79.2

Recorded result, YAEGTFISDYSIAMDKIHQQDFVNWLLAQKPKSARPS (modifications not checked) [0601GIP4821] , % Inh at 10 nM: 93.5

Noted for HGEGTFISDYSIALDKIRQQEFVNWLLAQKPKKIRYS (modifications not checked) [0601GIP4842] : its % Inh at 10 nM reads 40.8
